target: Serine/threonine-protein kinase ATR (Homo sapiens, UniProt Q13535)
Sequence (Q13535 whole entry): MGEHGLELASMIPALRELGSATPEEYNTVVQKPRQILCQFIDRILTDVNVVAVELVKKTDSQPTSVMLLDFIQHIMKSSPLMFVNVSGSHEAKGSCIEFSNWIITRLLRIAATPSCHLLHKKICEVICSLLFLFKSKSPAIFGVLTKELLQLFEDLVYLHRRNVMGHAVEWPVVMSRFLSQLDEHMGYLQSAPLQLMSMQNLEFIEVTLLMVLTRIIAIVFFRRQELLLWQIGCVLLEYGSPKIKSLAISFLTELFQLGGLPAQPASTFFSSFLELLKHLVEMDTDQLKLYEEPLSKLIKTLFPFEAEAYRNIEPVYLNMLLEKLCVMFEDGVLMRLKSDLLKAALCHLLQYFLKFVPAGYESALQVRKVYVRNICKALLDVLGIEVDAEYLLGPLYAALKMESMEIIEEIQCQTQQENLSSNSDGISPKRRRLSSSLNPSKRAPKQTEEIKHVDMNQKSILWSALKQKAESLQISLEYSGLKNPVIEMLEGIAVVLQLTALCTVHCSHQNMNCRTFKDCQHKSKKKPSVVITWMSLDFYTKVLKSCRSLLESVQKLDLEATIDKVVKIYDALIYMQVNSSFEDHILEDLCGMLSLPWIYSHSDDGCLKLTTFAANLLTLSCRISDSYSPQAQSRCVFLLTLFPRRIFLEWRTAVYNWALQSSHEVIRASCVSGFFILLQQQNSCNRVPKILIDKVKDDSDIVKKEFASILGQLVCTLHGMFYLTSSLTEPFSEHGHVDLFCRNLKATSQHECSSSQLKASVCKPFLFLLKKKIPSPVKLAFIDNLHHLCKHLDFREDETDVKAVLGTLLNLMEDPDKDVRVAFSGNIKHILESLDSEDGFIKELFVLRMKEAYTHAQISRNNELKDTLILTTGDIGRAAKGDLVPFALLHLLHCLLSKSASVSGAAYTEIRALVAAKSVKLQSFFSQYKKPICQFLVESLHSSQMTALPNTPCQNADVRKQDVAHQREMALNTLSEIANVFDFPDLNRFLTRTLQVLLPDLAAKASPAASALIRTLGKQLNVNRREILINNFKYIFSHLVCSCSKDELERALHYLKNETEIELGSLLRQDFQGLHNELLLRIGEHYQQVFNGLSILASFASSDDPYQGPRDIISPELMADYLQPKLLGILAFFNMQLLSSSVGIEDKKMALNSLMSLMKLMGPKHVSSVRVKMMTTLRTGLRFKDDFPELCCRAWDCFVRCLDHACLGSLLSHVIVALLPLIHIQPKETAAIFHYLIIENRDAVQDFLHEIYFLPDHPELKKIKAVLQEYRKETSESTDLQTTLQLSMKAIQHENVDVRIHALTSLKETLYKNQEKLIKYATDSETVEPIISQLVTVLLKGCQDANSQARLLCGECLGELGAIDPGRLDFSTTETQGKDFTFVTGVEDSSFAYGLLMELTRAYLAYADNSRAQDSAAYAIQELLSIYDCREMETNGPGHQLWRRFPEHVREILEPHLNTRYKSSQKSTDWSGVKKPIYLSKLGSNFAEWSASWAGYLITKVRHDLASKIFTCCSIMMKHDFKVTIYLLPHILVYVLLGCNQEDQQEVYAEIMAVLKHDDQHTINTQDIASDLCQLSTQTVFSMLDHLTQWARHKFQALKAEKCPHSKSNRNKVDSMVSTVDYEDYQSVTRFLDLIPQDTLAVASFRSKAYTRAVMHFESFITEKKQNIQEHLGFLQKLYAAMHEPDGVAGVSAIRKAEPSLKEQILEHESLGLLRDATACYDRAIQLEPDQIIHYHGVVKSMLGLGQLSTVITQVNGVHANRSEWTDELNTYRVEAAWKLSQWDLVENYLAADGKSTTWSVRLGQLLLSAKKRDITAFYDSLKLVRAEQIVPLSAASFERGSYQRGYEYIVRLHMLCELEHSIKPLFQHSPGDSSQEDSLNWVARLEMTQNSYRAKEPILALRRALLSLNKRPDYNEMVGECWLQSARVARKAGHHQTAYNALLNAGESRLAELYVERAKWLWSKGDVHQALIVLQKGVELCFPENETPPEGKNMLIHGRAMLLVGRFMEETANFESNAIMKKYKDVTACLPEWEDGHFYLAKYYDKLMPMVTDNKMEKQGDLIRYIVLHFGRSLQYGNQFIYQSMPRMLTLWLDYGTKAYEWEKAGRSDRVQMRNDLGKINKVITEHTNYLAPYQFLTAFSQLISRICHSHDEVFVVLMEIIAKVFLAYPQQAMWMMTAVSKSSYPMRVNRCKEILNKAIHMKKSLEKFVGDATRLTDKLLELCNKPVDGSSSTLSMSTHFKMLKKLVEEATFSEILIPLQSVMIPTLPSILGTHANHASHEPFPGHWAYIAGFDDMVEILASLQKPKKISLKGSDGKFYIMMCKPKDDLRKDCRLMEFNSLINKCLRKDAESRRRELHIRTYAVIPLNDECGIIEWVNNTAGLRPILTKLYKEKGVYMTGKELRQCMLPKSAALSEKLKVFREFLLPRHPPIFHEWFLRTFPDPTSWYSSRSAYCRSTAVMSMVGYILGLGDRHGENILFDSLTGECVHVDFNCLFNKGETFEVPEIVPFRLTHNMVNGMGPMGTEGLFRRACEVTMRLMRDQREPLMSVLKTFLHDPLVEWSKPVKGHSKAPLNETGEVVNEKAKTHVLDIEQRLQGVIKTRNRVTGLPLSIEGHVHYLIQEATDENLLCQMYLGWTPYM
testSummary: Inhibition Assay: Compounds were screened for their ability to inhibit ATR kinase using a radioactive-phosphate incorporation assay. Assays were carried out in a mixture of 50 mM Tris/HCl (pH 7.5), 10 mM MgCl2 and 1 mM DTT. Final substrate concentrations were 10 μM [γ-33P]ATP (3mCi 33P ATP/mmol ATP, Perkin Elmer) and 800 μM target peptide ([…]) (SEQ ID NO:1).Assays were carried out at 25° C. in the presence of 5 nM full-length ATR. An assay stock buffer solution was prepared containing all of the reagents listed above, with the exception of ATP and the test compound of interest. 13.5 μL of the stock solution was placed in a 96 well plate followed by addition of 2 μL of DMSO stock containing serial dilutions of the test compound (typically starting from a final concentration of 15 μM with 3-fold serial dilutions) in duplicate (final DMSO concentration 7%). The plate was pre-incubated for 10 minutes at 25° C. and the reaction initiated by addition of 15 μL [γ-33P]ATP (final concentration 10 μM).The reaction was stopped after 24 hours by the addition of 30 μL 0.1M phosphoric acid containing 2 mM ATP. A multiscreen phosphocellulose filter 96-well plate (Millipore, Cat no. MAPHN0B50) was pretreated with 100 μL 0.2M phosphoric acid prior to the addition of […] of the stopped assay mixture. The plate was washed with 5×200 μL 0.2M phosphoric acid. After drying, 100 μL Optiphase ‘SuperMix’ liquid scintillation cocktail (Perkin Elmer) was added to the well prior to scintillation counting (1450 Microbeta Liquid Scintillation Counter, Wallac).
experimentalEndpoint: Ki

# annotated cases, reported Ki shown
Nc1nn2cc(F)cnc2c1C(=O)Nc1cncc(F)c1N1CCC(C(=O)N2CCC(N3CCC3)CC2)CC1    < 0.01 µM
N#CCc1cnc2c(C(=O)Nc3cnccc3O[C@H]3CCNC3)c(N)nn2c1    < 0.01 µM

Consider the additional molecule presented here.
q: Hello, please tell me recorded Ki for this one: CC(=O)N1CCN(c2ccncc2NC(=O)c2c(N)nn3cc(F)cnc23)CC1
a: 0.01 to 1 µM
